B1: TPR t1 (parent)
chain: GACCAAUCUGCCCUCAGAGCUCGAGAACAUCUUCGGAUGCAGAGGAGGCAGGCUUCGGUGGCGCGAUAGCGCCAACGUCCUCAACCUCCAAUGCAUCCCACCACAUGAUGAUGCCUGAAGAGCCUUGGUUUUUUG

# Variants of: B1
# Experimental details: polymerase ribozyme fitness, log enrichment relative to wild type (log ratio); higher = more active; in vitro selection for triplet polymerase activity
Parameter measured: polymerase ribozyme fitness (log ratio)
In your answer, state the number alone without any accompanying words.

Some variants with recorded polymerase ribozyme fitness (log ratio):
A37U G60A G93C U112C C115G G122U U130A : -6.13
C4U U130A : -1.49
U32C U55G C102A : -2.56
G36U C101A U130C : -1.6
G48U C62G A91U C123U U125A : -5.93

Exam item: Need polymerase ribozyme fitness (log ratio) of C73G U116C U131A , thanks.
Marked response: -1.53

Exam item: Which polymerase ribozyme fitness (log ratio) value belongs to C22G A50C A75G ?
Marked response: -3.94

Exam item: # polymerase ribozyme fitness (log ratio) lookup, item A26U C62U
Marked response: -3.59

Exam item: What polymerase ribozyme fitness (log ratio) value was documented for this variant, U7A U87A C89G ?
Marked response: -1.86

Exam item: Reported polymerase ribozyme fitness (log ratio), variant G69U G113C G122C G127A U132A : ____
Marked response: -4.29

Exam item: Which polymerase ribozyme fitness (log ratio) is reported for this variant? U112A A118U
Marked response: 0.895

Exam item: Need polymerase ribozyme fitness (log ratio), item G36A C123A
Marked response: 0.117

Exam item: Data request, read-out polymerase ribozyme fitness (log ratio), for C12A C62A G77A
Marked response: -3.27

Exam item: Endpoint output: polymerase ribozyme fitness (log ratio) of A75U C76G C88A A90U C114U . Value?
Marked response: -2.85

Exam item: Which value of polymerase ribozyme fitness (log ratio) has been reported for A2U U21G C53U G58C C72U U129A in the records?
Marked response: -1.46

Exam item: Entry under review: G42U C62U C64U A84G . Reported polymerase ribozyme fitness (log ratio)?
Marked response: -4.19

Exam item: Reported polymerase ribozyme fitness (log ratio), variant U9C C40G C101U : ____
Marked response: -0.436

Exam item: # query: polymerase ribozyme fitness (log ratio) of entry A29U A46G C88U C97G
Marked response: -4.71
